System: Human papillomavirus type 1a E7 protein (residues 1-88)
Assay: HPV1a E7 small-molecule binders, primary screen, biochemical, small-molecule microarray, residues 1-88, 635 nm (AID 1129)
Conditions: small-molecule microarray binding, fluorescence 635 nm; higher = more signal
I'd be grateful if you could share measured composite z-score for these entries.
No unit in the answer, please; the number alone is enough.

[in] Identify measured composite z-score associated with O=C(O)[C@H]1C[C@H]2C(=O)NCC(=O)N2[C@H]1c1ccc(O)cc1
[out] -0.722

[in] Answer with reported composite z-score of [N-]=[N+]=Nc1ccccc1[C@H]1OC(c2ccc(OCCCO)cc2)=N[C@@]1(CCS(=O)(=O)c1ccccc1)C(=O)O
[out] 0.478

[in] Give recorded composite z-score. [N-]=[N+]=NCc1ccccc1[C@@H]1OC(c2ccc(OCCCO)cc2)=N[C@]1(Cc1ccccc1N=[N+]=[N-])C(=O)NCc1ccccc1
[out] 1.17

[in] Read off the recorded composite z-score for COCCOC(=O)N1C(=O)[C@@]2(c3cc(C#CCCO)ccc31)[C@H](C(=O)NC[C@H](O)c1ccccc1)[C@H]1C(=O)O[C@H](c3ccccc3)[C@H](c3ccccc3)N1[C@@H]2c1ccc(O)cc1
[out] 0.789

[in] Please report composite z-score for the following molecule: CC(=CC1CCCCC1)[C@@H](NC(=O)c1ccc(C(F)(F)F)cc1)c1ccc(-c2ccccc2)cc1
[out] -0.753

[in] Recall and state the measured composite z-score for COCCOC(=O)N1C(=O)[C@@]2(c3cc(C#CCC(C(=O)OC)C(=O)OC)ccc31)[C@H](c1ccc(O)cc1)N1[C@H](c3ccccc3)[C@H](c3ccccc3)OC(=O)[C@H]1[C@@H]2C(N)=O .
[out] 1.23

[in] Give me measured composite z-score, please, for this molecule: O=C1[C@]2(CO)C=C(Br)[C@@H](C[C@@H]2c2ccccc2)[C@@]12CO2
[out] -0.769
